molecular target: EPHB2 (UniProt P29323); experiment: phosphorylation enrichment, bacterial display (enrichment ratio); higher = better substrate or ligand; peptides without Tyr show the background
Sequence (P29323 whole entry, looked up): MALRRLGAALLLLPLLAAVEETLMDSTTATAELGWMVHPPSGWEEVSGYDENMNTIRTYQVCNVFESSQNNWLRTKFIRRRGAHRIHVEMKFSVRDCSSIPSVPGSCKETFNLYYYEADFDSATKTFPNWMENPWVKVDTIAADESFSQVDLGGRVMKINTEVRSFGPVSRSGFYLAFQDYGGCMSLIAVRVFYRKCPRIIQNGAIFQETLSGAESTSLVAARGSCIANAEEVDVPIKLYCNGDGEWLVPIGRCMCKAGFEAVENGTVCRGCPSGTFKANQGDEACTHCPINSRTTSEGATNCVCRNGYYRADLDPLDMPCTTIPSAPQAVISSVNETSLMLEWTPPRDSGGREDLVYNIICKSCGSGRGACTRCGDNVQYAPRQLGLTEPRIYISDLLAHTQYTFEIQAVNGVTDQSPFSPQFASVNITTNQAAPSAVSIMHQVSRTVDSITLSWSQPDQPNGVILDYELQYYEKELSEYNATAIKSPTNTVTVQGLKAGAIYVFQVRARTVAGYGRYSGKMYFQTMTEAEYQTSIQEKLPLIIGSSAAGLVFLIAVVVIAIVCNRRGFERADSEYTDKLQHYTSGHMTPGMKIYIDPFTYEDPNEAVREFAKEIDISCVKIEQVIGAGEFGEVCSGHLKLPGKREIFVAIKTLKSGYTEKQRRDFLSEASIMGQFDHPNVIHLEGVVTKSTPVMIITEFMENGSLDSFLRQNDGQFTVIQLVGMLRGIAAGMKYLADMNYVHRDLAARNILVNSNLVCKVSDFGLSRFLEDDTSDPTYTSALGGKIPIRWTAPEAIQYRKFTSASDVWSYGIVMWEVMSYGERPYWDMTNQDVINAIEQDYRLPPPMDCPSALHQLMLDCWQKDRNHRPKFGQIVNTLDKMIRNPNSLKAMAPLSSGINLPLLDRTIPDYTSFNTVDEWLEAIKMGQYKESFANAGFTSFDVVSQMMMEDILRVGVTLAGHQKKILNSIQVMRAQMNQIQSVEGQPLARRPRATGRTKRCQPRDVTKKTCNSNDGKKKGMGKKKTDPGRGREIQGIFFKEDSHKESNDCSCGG
measurementName: phosphorylation enrichment
Could you respond with only the numeric value?

Worked cases, phosphorylation enrichment given:
{"constructSequence": "VTQEQYELHCE [CBL_Y368_Y371H]", "reported": 0.601}
{"constructSequence": "ANNEFYFQVCA", "reported": 0.588}
{"constructSequence": "MLEVPYVDRNS [F10_Y384]", "reported": 0.494}
{"constructSequence": "SETSRYLSELF [KCNJ3_Y67_D70E]", "reported": 0.498}
{"constructSequence": "CCNHPYLINGA [CHD7_Y1256]", "reported": 0.495}
{"constructSequence": "QKLPLYILENN [VPS13B_Y2774_S2773L]", "reported": 0.607}

Looking up FASVEYQEALS [GALNS_Y461_A459V] , I see its phosphorylation enrichment listed as 0.588

In plain terms, FPQARYHWLVL [APTX_Y214_K211Q_YF] has a documented phosphorylation enrichment of 0.597

So for VGSIKYLKREW [KCNMA1_Y885_E884K] , the logged phosphorylation enrichment turned out to be 0.505

# phosphorylation enrichment of QGIPWYHSQSP [FOXF1_Y331_R330W] = 0.503

Looking up PLQKTYNFNML [SLC4A1_Y553_V557M_YF] , I see its phosphorylation enrichment listed as 0.587

* * *

target: Grb2 SH2 (UniProt P62993); assay: SH2 binding enrichment of the phosphorylated peptide, bacterial display (enrichment ratio); higher = better substrate or ligand; peptides without Tyr show the background
Sequence (P62993 whole entry, looked up): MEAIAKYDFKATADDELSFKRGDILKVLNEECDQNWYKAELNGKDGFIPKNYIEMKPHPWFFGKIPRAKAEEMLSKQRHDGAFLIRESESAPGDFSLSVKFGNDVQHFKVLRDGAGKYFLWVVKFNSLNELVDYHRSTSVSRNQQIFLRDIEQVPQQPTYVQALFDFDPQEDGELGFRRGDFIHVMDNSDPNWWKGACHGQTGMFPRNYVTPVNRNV
measurementName: SH2 binding enrichment
Output spec: single numeric token, no unit.

Example entries begin here.
{"constructSequence": "NDLMEYPKQHG [ASS1_Y163_A164P]", "reported": 0.887}
{"constructSequence": "ETDSEYVKLAK [C7orf57_Y70]", "reported": 0.816}
{"constructSequence": "YSKDNYKRVTG [PANK2_Y405]", "reported": 0.793}
{"constructSequence": "VAVTKYCKEEL [ATP7B_Y1078]", "reported": 0.813}

Sample SVMAEYGLFAA [VSX2_Y219_G223A_YF] , system: Grb2 SH2 (UniProt P62993). Its SH2 binding enrichment is 0.881

Record AHAGEYGAVAL [HBA1_Y25_E28V] has Grb2 SH2 (UniProt P62993) SH2 binding enrichment equal to 0.88

Measured SH2 binding enrichment (Grb2 SH2 (UniProt P62993)), entry FRVAGYETQGG [TIA1_Y383_YF] : 0.822

Tested system Grb2 SH2 (UniProt P62993); SH2 binding enrichment recorded for DFDNLYYWDQD [ERBB2_Y1221_A1216D] was 0.808

Tested on Grb2 SH2 (UniProt P62993), the item SVSVNYGDLVQ [GRAP_Y101_Q104L] showed SH2 binding enrichment equal to 0.824

So the reported SH2 binding enrichment for YQKDVYNIPPS [NEDD9_Y177_D178N] , on Grb2 SH2 (UniProt P62993), turned out to be 0.808

Tested on Grb2 SH2 (UniProt P62993): FSCLPYGRLAY [SLC52A2_Y305] . Observed SH2 binding enrichment: 0.804

* * *

Recorded measurements of phosphorylation enrichment, one per entry
target: FGFR3 (UniProt P22607); assay: phosphorylation enrichment, bacterial display (enrichment ratio); higher = better substrate or ligand; peptides without Tyr show the background
Sequence (P22607 whole entry, looked up): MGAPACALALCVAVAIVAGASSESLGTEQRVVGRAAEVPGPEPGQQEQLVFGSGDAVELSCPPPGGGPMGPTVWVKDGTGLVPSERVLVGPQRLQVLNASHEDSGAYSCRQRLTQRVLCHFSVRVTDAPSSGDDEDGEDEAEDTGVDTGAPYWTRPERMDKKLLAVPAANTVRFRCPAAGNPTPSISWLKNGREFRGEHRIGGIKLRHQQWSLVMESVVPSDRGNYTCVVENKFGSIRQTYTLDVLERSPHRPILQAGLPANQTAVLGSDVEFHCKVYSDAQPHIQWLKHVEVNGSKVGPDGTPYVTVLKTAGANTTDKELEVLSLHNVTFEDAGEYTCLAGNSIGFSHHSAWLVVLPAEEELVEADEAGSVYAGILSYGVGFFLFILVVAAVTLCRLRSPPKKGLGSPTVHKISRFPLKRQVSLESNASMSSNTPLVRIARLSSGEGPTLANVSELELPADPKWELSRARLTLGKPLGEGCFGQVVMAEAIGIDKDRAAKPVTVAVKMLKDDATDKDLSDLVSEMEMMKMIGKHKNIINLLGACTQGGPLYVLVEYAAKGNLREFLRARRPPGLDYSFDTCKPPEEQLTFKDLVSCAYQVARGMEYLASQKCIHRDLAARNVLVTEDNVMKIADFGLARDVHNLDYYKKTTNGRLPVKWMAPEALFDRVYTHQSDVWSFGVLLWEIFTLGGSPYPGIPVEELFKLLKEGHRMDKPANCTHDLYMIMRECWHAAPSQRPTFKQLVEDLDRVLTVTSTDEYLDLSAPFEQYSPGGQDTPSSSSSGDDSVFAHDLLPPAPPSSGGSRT
// print number alone

Solved entries:
{"constructSequence": "RSLLQYGGSAN [ANK1_Y624]", "systemTested": "FGFR3 (UniProt P22607)", "measurementName": "phosphorylation enrichment", "reported": 0.772}
{"constructSequence": "EPTPGYEVGQR [TSC2_Y1788]", "systemTested": "FGFR3 (UniProt P22607)", "measurementName": "phosphorylation enrichment", "reported": 0.591}
{"constructSequence": "AQRKLYRNVML [ZNF569_Y33]", "systemTested": "FGFR3 (UniProt P22607)", "measurementName": "phosphorylation enrichment", "reported": 0.372}
{"constructSequence": "LERDIYNREEF [HLA-DPB1_Y59_Y57D]", "systemTested": "FGFR3 (UniProt P22607)", "measurementName": "phosphorylation enrichment", "reported": 0.906}
{"constructSequence": "FSVDSYDSSVR [KCNQ1_Y461_G460S]", "systemTested": "FGFR3 (UniProt P22607)", "measurementName": "phosphorylation enrichment", "reported": 0.548}
{"constructSequence": "MSLRSYGSWEG [APC_Y96_R99W]", "systemTested": "FGFR3 (UniProt P22607)", "measurementName": "phosphorylation enrichment", "reported": 0.671}
{"constructSequence": "ETWHNYHKFDS [MATR3_Y243_S240W]", "systemTested": "FGFR3 (UniProt P22607)", "measurementName": "phosphorylation enrichment", "reported": 0.732}
{"constructSequence": "DMLFQYLKQIE [RPAP3_Y569_YF]", "systemTested": "FGFR3 (UniProt P22607)", "measurementName": "phosphorylation enrichment", "reported": 0.59}

Form: item FPCSVYMPDEW [INSR_Y1011_V1012M] ; test system FGFR3 (UniProt P22607); phosphorylation enrichment: 0.712

For PIFLFYLMDLS [ITGB2_Y131_D128Y_YF] on FGFR3 (UniProt P22607), measured phosphorylation enrichment was 1.31

FASVEYQEALS [GALNS_Y461_A459V] tested on FGFR3 (UniProt P22607) gave phosphorylation enrichment: 0.631

The value of phosphorylation enrichment recorded for YYSSEYHYVGG [CTSC_Y345] when tested on FGFR3 (UniProt P22607) reads 16.1

Kindly note: FGFR3 (UniProt P22607), QRPGPYDRPGA [HNRNPH2_Y210] , phosphorylation enrichment value reported: 0.48

For the sequence TDLAYYLVRKG [ASL_Y376] , the measured phosphorylation enrichment on FGFR3 (UniProt P22607) was 2.42

* * *

target: EPHB1 (UniProt P54762); assay: phosphorylation enrichment, bacterial display (enrichment ratio); higher = better substrate or ligand; peptides without Tyr show the background
Sequence (P54762 whole entry, looked up): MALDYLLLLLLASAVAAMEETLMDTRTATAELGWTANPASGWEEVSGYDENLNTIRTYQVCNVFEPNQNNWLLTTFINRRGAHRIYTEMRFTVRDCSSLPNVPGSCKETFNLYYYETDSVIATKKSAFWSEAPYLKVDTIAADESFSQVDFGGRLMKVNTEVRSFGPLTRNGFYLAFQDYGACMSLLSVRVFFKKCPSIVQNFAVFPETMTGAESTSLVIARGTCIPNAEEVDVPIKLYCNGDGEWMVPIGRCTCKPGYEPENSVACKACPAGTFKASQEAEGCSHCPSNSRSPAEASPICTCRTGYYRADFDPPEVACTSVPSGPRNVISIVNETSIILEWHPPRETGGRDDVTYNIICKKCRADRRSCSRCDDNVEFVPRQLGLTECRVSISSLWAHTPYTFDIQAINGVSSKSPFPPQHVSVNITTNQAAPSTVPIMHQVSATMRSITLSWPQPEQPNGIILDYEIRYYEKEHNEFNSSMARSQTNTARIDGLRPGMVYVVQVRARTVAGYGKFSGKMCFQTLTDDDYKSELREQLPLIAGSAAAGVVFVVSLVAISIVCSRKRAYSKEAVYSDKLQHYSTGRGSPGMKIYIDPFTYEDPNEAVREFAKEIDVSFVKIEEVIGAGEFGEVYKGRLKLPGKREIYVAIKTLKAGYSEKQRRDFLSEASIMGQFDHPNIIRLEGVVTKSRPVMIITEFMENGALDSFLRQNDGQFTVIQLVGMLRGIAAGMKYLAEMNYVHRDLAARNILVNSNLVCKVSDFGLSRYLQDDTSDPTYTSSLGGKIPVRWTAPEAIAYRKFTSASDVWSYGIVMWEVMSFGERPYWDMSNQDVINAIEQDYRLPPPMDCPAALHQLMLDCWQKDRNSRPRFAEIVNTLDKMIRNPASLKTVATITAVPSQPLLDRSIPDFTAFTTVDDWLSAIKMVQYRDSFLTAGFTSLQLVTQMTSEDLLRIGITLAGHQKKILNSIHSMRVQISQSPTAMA
Quick list: phosphorylation enrichment per entry.
In your answer, state the number alone without any accompanying words.

Consider the worked cases shown below.
{"constructSequence": "TSSAGYRAAEG [COL6A3_Y543]", "phosphorylation enrichment": 0.505}
{"constructSequence": "MKGDFYRFLAE [YWHAG_Y131_YF]", "phosphorylation enrichment": 0.497}
{"constructSequence": "KNNDGYIDFAE [MCFD2_Y135_YF]", "phosphorylation enrichment": 0.492}

Recorded result, KELSNYKHLTL [SLIT2_Y776] , phosphorylation enrichment: 0.494

* * *

# maps each entry to its phosphorylation enrichment
test system: Fer (mouse); experiment: phosphorylation enrichment, bacterial display (enrichment ratio); higher = better substrate or ligand; peptides without Tyr show the background

Known results for sequences:
{"constructSequence": "VPFAQYLAMNK [HARS1_Y138_R137Q]", "phosphorylation enrichment": 0.406}
{"constructSequence": "NFDRVYIFHLR [MYOF_Y1137_YF]", "phosphorylation enrichment": 0.523}
{"constructSequence": "PYRFIYMAVQH [PTPN11_Y515_Q510P]", "phosphorylation enrichment": 2.9}
{"constructSequence": "CFTGKYTLPPG [HSPB1_Y142_R140G]", "phosphorylation enrichment": 0.521}
{"constructSequence": "MTRDIYRASFF [ALK_Y1278_A1274T_YF]", "phosphorylation enrichment": 0.386}
{"constructSequence": "AIDVGYRLIDC [AKR1B1_Y40_H42L]", "phosphorylation enrichment": 0.424}

Query TENAGYYFQVS yields phosphorylation enrichment of 0.604

response.value for LDVDVYGPSVP [NUBPL_Y109] (field: phosphorylation enrichment) = 1.2

* * *

target: FGFR3 (UniProt P22607); test: phosphorylation enrichment, bacterial display (enrichment ratio); higher = better substrate or ligand; peptides without Tyr show the background
Mark Not satisfied for phosphorylation enrichment values under 0.7, and Satisfied for everything at or above.

Example cases with answers are listed next.
{"constructSequence": "GKTFTYRSVFF [ZNF80_Y200]", "classLabel": "Not satisfied"}
{"constructSequence": "YCRHNYGVGES [HLA-DRB1_Y112_V115G]", "classLabel": "Not satisfied"}
{"constructSequence": "FEPWVYSFSFE [PRKDC_Y647_YF]", "classLabel": "Satisfied"}
{"constructSequence": "IFQASYFRRGD [LTK_Y676_R673Q_YF]", "classLabel": "Not satisfied"}
{"constructSequence": "IFGVSYDEYRY [CFTR_Y512]", "classLabel": "Not satisfied"}

As a next step, examine the sequence that follows.
API: above_or_equal(metric=phosphorylation enrichment, cutoff=0.7) for item LLQKTYNYNVL [SLC4A1_Y553_P548L]
Satisfied
